- TESTED SYSTEM: UniProt:P21802
- METHOD: Kinase assay, binding constants (Kd), kinase-tagged T7 phage, qPCR
Counter-ions that a name gives are not always drawn.
MEASUREMENT NAME: Kd

# return Kd for each item in the list
1. C[C@@H](Oc1ccc2[nH]nc(-c3cnn(C4CCNCC4)c3)c2c1)c1cc(F)cc(F)c1
2. Cc1ncc(Cl)c([C@@H](C)Oc2ccc3[nH]nc(-c4ccc(N5CC6(C5)CN(S(C)(=O)=O)C6)nc4)c3c2)c1Cl
3. COc1cc2[nH]nc(-c3ccc(N4CC5(C4)CN(S(C)(=O)=O)C5)nc3)c2cc1O[C@H](C)c1c(C)cnnc1C
4. C[C@@H](Oc1ccc2[nH]nc(-c3ccc(N4CC5(CNC5)OC4=O)nc3)c2c1)c1c(Cl)cncc1Cl
5. C[C@@H](Oc1ccc2[nH]nc(-c3ccc(N4CC5(CCN5S(C)(=O)=O)C4)nc3)c2c1)c1c(Cl)cncc1Cl
6. Cc1cnnc(C)c1[C@@H](C)Oc1ccc2[nH]nc(-c3ccc(N4CC5(C4)CN(S(C)(=O)=O)C5)nc3)c2c1

Key:
1: 1 to 20 nM; 2: 20 to 100 nM; 3: 1 to 20 nM; 4: 20 to 100 nM; 5: 1 to 20 nM; 6: 1 to 20 nM

# return Kd for each item in the list
1. C[C@@H](Oc1ccc2[nH]nc(-c3cnc(N4CCC5(CCC(=O)N5C)CC4)c(F)c3)c2c1)c1c(Cl)cncc1Cl
2. C[C@@H](Oc1ccc2[nH]nc(-c3ccc(N4CCNC(=O)CC4)nc3)c2c1)c1c(Cl)cncc1Cl
3. COC(=O)N1CC2(C1)CN(c1ncc(-c3n[nH]c4ccc(O[C@H](C)c5c(C)cnnc5C)cc34)cn1)C2
4. COc1cc2[nH]nc(-c3cnc(N4CC[C@@H]4C)c(S(C)(=O)=O)c3)c2cc1O[C@H](C)c1c(Cl)cncc1Cl
5. C[C@@H](Oc1ccc2[nH]nc(-c3cnc(N4CCN(C(=O)N5CCN(C)CC5)CC4)nc3)c2c1)c1c(Cl)cncc1Cl

Key:
["1 to 20 nM", "1 to 20 nM", "20 to 100 nM", "> 300 nM", "1 to 20 nM"]

# return Kd for each item in the list
1. Cc1cnnc(C)c1[C@@H](C)Oc1ccc2[nH]nc(-c3ccc(N4CC5(CCCN(S(C)(=O)=O)C5)C4)nc3)c2c1
2. C[C@@H](Oc1ccc2[nH]nc(-c3cnc(N4CCNCC4)nc3)c2c1)c1c(Cl)cncc1Cl
3. C[C@@H](Oc1ccc2[nH]nc(-c3ccc(N4CCC5(CC4)CN(C)CC(=O)N5C)nc3)c2c1)c1c(Cl)cncc1Cl
4. C[C@@H](Oc1ccc2[nH]nc(-c3ccc(N4CC5(CN(CC(F)(F)F)C5)C4)nc3)c2c1)c1c(Cl)cncc1Cl
5. C[C@@H](Oc1ccc2[nH]nc(-c3cnc(N4CC5(CCCS(=O)(=O)C5)C4)nc3)c2c1)c1c(Cl)cncc1Cl

Key:
1. 1 to 20 nM
2. 1 to 20 nM
3. 1 to 20 nM
4. 20 to 100 nM
5. 20 to 100 nM

# return Kd for each item in the list
1. C[C@@H](Oc1ccc2[nH]nc(-c3ccc(N4CCNCC4)nc3)c2c1)c1c(Cl)cncc1Cl [Example 2, dihydrochloride]
2. C[C@@H](Oc1ccc2[nH]nc(-c3ccc(N4CC(C(F)F)C4)nc3)c2c1)c1c(Cl)cncc1Cl
3. C[C@@H](Oc1ccc2[nH]nc(-c3ccc(N4CCN(C(=O)N5CCOCC5)CC4)nc3)c2c1)c1c(Cl)cncc1Cl
4. C[C@@H](Oc1ccc2[nH]nc(-c3cnc(N4CCC5(CCN(C)C5=O)CC4)nc3)c2c1)c1c(Cl)cncc1Cl

Key:
["1 to 20 nM", "20 to 100 nM", "1 to 20 nM", "20 to 100 nM"]

---

Would you mind telling me the reported Kd of each entry?
- TESTED SYSTEM: FGFR2 (Homo sapiens (Human))
- Sequence (P21802 22-821): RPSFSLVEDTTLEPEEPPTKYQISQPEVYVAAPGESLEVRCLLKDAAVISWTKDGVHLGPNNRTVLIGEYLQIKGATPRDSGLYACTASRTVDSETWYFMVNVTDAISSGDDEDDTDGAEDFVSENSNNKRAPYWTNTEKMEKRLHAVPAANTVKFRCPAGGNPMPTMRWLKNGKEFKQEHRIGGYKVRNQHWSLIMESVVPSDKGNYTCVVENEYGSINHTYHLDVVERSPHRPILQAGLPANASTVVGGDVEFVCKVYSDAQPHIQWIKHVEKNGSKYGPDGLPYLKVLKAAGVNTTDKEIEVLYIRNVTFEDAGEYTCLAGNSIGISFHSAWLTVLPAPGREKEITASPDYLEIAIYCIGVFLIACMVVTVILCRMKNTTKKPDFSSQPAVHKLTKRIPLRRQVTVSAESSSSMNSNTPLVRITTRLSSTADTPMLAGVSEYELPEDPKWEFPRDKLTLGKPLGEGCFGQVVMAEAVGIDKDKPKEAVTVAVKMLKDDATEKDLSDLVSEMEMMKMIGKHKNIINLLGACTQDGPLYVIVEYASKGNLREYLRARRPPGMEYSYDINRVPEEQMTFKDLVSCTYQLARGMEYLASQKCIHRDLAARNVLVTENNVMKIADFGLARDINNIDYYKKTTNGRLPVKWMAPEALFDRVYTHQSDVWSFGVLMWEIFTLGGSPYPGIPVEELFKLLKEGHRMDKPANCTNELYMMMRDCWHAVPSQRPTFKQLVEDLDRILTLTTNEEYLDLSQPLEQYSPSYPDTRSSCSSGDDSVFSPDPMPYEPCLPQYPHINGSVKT
- METHOD: Kinase assay, binding constants (Kd), kinase-tagged T7 phage, qPCR

Worked examples follow.
C[C@@H](Oc1ccc2[nH]nc(-c3ccc(N4CC5(CN(C(=O)C(F)(F)F)C5)C4)nc3)c2c1)c1c(Cl)cncc1Cl	1 to 20 nM
C[C@@H](Oc1cc2c(-c3cnc(N4CC(C)(C)C4)c(CN(C)C)c3)n[nH]c2cc1Cl)c1c(Cl)cncc1Cl	> 300 nM
C[C@@H](Oc1cc2c(-c3cnc(N4CCC4)c(C#N)c3)n[nH]c2cc1Cl)c1c(Cl)cncc1Cl	> 300 nM

Turning to the following compound.
The reported value for Cc1ncc(Cl)c([C@@H](C)Oc2ccc3[nH]nc(-c4cnc(N5CC6(CCCS(=O)(=O)C6)C5)c(C#N)c4)c3c2)c1Cl in terms of Kd is 100 to 300 nM

---

Would you mind telling me the reported Kd of each entry?
- TESTED SYSTEM: FGFR1 (Homo sapiens (Human), UniProt P11362)
- Sequence (P11362 22-822): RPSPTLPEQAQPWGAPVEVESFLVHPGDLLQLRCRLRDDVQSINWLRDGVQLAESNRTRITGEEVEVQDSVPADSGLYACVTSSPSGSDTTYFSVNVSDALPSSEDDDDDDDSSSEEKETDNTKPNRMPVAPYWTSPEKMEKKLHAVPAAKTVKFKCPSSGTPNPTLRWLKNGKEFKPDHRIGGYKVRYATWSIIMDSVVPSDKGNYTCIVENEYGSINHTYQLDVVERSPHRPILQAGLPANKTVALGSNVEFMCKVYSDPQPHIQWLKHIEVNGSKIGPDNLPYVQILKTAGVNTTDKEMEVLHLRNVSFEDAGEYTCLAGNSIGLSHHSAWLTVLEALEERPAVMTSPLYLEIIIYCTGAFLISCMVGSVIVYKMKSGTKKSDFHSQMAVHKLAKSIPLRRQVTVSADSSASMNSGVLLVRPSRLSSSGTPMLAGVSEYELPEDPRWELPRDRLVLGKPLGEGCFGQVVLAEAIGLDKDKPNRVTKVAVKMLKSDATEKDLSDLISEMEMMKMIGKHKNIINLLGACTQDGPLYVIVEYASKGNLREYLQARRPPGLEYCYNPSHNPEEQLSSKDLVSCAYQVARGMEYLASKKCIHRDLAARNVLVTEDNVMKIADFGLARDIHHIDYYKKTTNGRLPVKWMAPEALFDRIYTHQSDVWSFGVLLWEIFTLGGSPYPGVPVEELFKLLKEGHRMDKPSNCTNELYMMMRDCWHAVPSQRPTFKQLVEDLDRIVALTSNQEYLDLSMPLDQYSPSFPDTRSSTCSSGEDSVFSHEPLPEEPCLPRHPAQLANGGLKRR
- METHOD: Kinase assay, binding constants (Kd), kinase-tagged T7 phage, qPCR

C[C@@H](Oc1ccc2[nH]nc(-c3cnc(N4CCN(C(=O)N(C)C)CC4)nc3)c2c1)c1c(Cl)cncc1Cl	1 to 20 nM
C[C@@H](Oc1ccc2[nH]nc(-c3cnc(N4CCC4CN(C)C)c(C#N)c3)c2c1)c1c(Cl)cncc1Cl (stereo partly shown)	> 300 nM
C[C@@H](Oc1ccc2[nH]nc(-c3cnc(N4CCC[C@H]4CO)c(C#N)c3)c2c1)c1c(Cl)cncc1Cl	20 to 100 nM

Turning to the following compound.
The reported value for COC(=O)N1CC2(C1)CN(c1ccc(-c3n[nH]c4ccc(O[C@@H](C)c5c(C)cnnc5C)cc34)cn1)C2 in terms of Kd is > 300 nM

---

- TESTED SYSTEM: FGFR4 (Homo sapiens (Human), UniProt P22455)
- Sequence (P22455 22-802): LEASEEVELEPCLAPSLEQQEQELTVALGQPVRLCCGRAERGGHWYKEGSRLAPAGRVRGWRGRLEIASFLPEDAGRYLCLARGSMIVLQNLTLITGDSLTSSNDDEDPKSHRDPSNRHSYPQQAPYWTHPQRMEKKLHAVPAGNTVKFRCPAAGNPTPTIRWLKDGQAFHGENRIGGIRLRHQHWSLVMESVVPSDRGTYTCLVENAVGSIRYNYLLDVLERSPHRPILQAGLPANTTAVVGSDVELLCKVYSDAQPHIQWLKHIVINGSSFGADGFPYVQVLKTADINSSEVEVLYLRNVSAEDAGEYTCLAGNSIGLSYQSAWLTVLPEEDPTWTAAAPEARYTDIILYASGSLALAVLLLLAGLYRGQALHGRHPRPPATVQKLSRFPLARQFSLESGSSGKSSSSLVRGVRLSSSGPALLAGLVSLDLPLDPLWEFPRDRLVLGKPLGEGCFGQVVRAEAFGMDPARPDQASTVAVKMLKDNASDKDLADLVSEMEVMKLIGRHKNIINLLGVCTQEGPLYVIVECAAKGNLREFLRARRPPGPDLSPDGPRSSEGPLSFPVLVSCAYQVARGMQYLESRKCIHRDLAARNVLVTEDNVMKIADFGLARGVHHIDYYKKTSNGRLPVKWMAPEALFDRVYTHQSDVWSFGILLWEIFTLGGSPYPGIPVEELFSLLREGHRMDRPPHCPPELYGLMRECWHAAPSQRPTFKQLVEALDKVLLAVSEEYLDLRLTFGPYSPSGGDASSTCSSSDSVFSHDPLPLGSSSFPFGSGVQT
- METHOD: Kinase assay, binding constants (Kd), kinase-tagged T7 phage, qPCR
MEASUREMENT NAME: Kd

Worked examples follow.
COc1cc2[nH]nc(-c3cnc(N4CC5(CCCS(=O)(=O)C5)C4)c(C#N)c3)c2cc1O[C@H](C)c1c(Cl)cncc1Cl	1 to 20 nM
C[C@@H](Oc1ccc2[nH]nc(-c3ccc(N4CCN(S(C)(=O)=O)C5(CC5)C4)nc3)c2c1)c1c(Cl)cncc1Cl	1 to 20 nM
COc1cc2[nH]nc(-c3cnc(N4CC5(C4)CN(S(C)(=O)=O)C5)c(F)c3)c2cc1O[C@H](C)c1c(Cl)cncc1Cl	1 to 20 nM
C[C@@H](Oc1ccc2[nH]nc(-c3ccc(N4CCN5CCC[C@H]5C4)nc3)c2c1)c1c(Cl)cncc1Cl	1 to 20 nM
Cc1ncc(Cl)c([C@@H](C)Oc2ccc3[nH]nc(-c4cnn(C5CCN(C6CCC6)CC5)c4)c3c2)c1Cl	20 to 100 nM

# return Kd for each item in the list
1. COc1cc2[nH]nc(-c3cnc(N4CCC4)c(C#N)c3)c2cc1O[C@H](C)c1c(C)cnnc1C
2. C[C@H](Oc1ccc2[nH]nc(-c3cnc(N4CC(O)C4)c(C#N)c3)c2c1)c1c(Cl)cnc(F)c1Cl
3. CNCc1cc(-c2n[nH]c3cc(OC)c(O[C@H](C)c4c(Cl)cncc4Cl)cc23)cnc1N1CC2(C1)CN(S(C)(=O)=O)C2
4. C[C@@H](Oc1ccc2[nH]nc(-c3ccc(N4CC5CC(C4)N5S(C)(=O)=O)nc3)c2c1)c1c(Cl)cncc1Cl
5. C[C@@H](Oc1ccc2[nH]nc(-c3cnc(N4CCC4)c(C#N)c3)c2c1)c1c(Cl)cncc1Cl
6. C[C@@H](Oc1ccc2[nH]nc(-c3cnc(N4CCC(O)CC4)c(C#N)c3)c2c1)c1c(Cl)cncc1Cl
7. C[C@@H](Oc1ccc2[nH]nc(-c3ccc(N4CCOCC4)cn3)c2c1)c1c(Cl)cncc1Cl

Key:
1. 1 to 20 nM
2. > 300 nM
3. 20 to 100 nM
4. 1 to 20 nM
5. 1 to 20 nM
6. 1 to 20 nM
7. 1 to 20 nM

# return Kd for each item in the list
1. Cc1ncc(Cl)c([C@@H](C)Oc2ccc3[nH]nc(-c4ccc(N5CC6(CCOC6)C5)nc4)c3c2)c1Cl
2. C[C@@H](Oc1cc2c(-c3cnc(N4CCC4)c(C#N)c3)n[nH]c2cc1Cl)c1c(Cl)cncc1Cl

Key:
1 to 20 nM
1 to 20 nM

---

- System: KG-1 cells (FGFR1-fusion)
- METHOD: KG-1 cancer cell line cell viability assay (CellTiter-Glo 2.0)
- Assay type: cell-based
- CONDITION CONTEXT: Homo sapiens, 72 hours, Cell Titer Glo 2.0
Would you mind telling me the reported IC50 of each entry?

C[C@@H](Oc1ccc2[nH]nc(-c3ccc(N4CCN(C(N)=O)CC4)nc3)c2c1)c1c(Cl)cncc1Cl	20 to 100 nM
C[C@@H](Oc1ccc2[nH]nc(-c3ccc(N4CCN(C(=O)N(C)C)CC4)nc3)c2c1)c1c(Cl)cncc1Cl	20 to 100 nM
C[C@@H](Oc1ccc2[nH]nc(-c3ccc(N4CC5(CCCS(=O)(=O)C5)C4)nc3)c2c1)c1c(Cl)cncc1Cl	1 to 20 nM
Cc1ncc(Cl)c([C@@H](C)Oc2ccc3[nH]nc(-c4ccc(N5CC6(C5)CN(S(C)(=O)=O)C6)nc4)c3c2)c1Cl	100 to 300 nM
C[C@@H](Oc1ccc2[nH]nc(-c3ccc(N4CC5CC(C4)N5)nc3)c2c1)c1c(Cl)cncc1Cl	20 to 100 nM
CCC(=O)N1CCN(c2ccc(-c3n[nH]c4ccc(O[C@H](C)c5c(Cl)cncc5Cl)cc34)cn2)CC1	20 to 100 nM
C[C@@H](Oc1ccc2[nH]nc(-c3ccc(N4CCC5(CC4)CN(C)CC(=O)N5)nc3)c2c1)c1c(Cl)cncc1Cl	20 to 100 nM
C[C@@H](Oc1ccc2[nH]nc(-c3cnc(N4CCC5(CC4)CCS(=O)(=O)C5)c(F)c3)c2c1)c1c(Cl)cncc1Cl	100 to 300 nM
C[C@@H](Oc1ccc2[nH]nc(-c3ccc(N4CCNC5(CC5)C4)nc3)c2c1)c1c(Cl)cncc1Cl	20 to 100 nM
C[C@@H](Oc1ccc2[nH]nc(-c3cnn(C4CCN(C5COC5)CC4)c3)c2c1)c1c(Cl)cncc1Cl	20 to 100 nM

# return IC50 for each item in the list
1. C[C@@H](Oc1ccc2[nH]nc(-c3cnc(N4CCCN(C5COC5)CC4)nc3)c2c1)c1c(Cl)cncc1Cl
2. CC(C)S(=O)(=O)N1CC2(CN(c3ncc(-c4n[nH]c5ccc(O[C@H](C)c6c(Cl)cncc6Cl)cc45)cn3)C2)C1
3. COC(=O)N1CC2(C1)CN(c1ccc(-c3n[nH]c4ccc(O[C@H](C)c5c(Cl)cncc5Cl)cc34)cn1)C2

Key:
["100 to 300 nM", "> 300 nM", "100 to 300 nM"]
